meta.source: paper PMC4336329

target: human ether-à-go-go-related gene (hERG) potassium channel (human); assay: primary screen, population patch clamp on CHO cells stably expressing hERG; higher = less effect of the substance
Screen size: about 310,000 compounds; about 14,000 (4.5%) showed an effect of 50% or more. The effect is printed as a negative number. The entries come from a sample that favours strong results as a whole.
Reported property: hERG current change (%, negative = inhibition) at 10uM
I'd appreciate it if you included the unit after the number.

Use the examples below as a reference point.
| Compound | Assay target | Measured |
| --- | --- | --- |
| COc1cc2ccccc2cc1C(=O)OCC(=O)N(C)c1c(N)n(Cc2ccccc2)c(=O)[nH]c1=O | human ether-à-go-go-related gene (hERG) potassium channel (human) | 3.29% |
| O=C(c1ccc([N+](=O)[O-])cc1)N1CCSC1c1ccccc1 (stereo not drawn) | human ether-à-go-go-related gene (hERG) potassium channel (human) | -39.3% |
| O=S(=O)(c1ccc(SCc2ccc(Cl)cc2)nc1)N1CCCC1 | human ether-à-go-go-related gene (hERG) potassium channel (human) | -8.21% |
| N#Cc1ccc(S(=O)(=O)N2CCC(N3CCCCC3)CC2)cc1 | human ether-à-go-go-related gene (hERG) potassium channel (human) | -58.3% |
| CC(C)CCC(CCNCc1ccccn1)c1ccc2c(c1)OCO2.Cl (stereo not drawn) | human ether-à-go-go-related gene (hERG) potassium channel (human) | -75.5% |

Exam item: Which measured hERG current change (%, negative = inhibition) at 10uM value corresponds to CCCCOC(=O)Cn1c(=O)c2c(nc3n2CCCCN3c2ccc(C)cc2)n(C)c1=O ?
Marked response: -52.8%

Exam item: Could you tell me which hERG current change (%, negative = inhibition) at 10uM is on file for O=C(NNC(=O)c1ccc([N+](=O)[O-])cc1)c1ccc(Br)cc1 ?
Marked response: 14.5%

* * *

target: human ether-à-go-go-related gene (hERG) potassium channel (human, UniProt Q12809); experiment: primary screen, population patch clamp on CHO cells stably expressing hERG; higher = less effect of the substance;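 note: peak tail current of the secondary pulse compared with the same well before compound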
Sequence (Q12809 whole entry, looked up): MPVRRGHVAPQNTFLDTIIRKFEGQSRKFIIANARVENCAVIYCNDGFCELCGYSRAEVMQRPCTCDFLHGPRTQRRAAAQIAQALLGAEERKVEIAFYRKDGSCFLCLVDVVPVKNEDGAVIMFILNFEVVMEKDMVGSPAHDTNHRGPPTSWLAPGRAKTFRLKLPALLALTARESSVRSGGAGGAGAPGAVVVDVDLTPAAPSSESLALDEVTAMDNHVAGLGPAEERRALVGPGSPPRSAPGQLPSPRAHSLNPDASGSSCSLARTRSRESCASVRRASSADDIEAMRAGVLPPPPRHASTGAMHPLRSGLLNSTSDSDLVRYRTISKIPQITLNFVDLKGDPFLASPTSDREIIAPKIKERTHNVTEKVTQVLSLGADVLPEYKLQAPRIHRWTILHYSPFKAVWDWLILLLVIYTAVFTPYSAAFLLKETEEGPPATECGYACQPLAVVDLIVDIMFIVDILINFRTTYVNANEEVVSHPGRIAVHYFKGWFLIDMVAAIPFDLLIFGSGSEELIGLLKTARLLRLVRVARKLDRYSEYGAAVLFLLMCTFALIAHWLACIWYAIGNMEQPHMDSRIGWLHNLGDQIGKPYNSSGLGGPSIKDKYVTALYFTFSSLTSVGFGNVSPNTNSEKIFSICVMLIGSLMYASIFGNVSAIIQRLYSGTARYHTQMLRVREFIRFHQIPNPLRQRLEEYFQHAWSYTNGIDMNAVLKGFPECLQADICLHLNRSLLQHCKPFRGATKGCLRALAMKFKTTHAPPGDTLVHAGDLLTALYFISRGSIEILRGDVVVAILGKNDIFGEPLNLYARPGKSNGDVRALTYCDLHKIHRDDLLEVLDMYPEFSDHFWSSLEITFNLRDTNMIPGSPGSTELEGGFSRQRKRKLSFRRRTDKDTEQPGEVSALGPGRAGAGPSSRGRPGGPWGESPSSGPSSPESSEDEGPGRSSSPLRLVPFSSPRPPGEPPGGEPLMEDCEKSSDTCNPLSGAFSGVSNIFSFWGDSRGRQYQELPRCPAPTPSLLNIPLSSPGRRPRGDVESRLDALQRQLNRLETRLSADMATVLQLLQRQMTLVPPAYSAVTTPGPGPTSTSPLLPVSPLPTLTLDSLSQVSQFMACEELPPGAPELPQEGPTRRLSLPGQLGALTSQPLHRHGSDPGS
Screen size: about 310,000 compounds; about 14,000 (4.5%) showed an effect of 50% or more. The effect is printed as a negative number. The list comes from a sample in which strong results are over-represented; it also holds close analogues and randomly drawn compounds.
Decision: hERG current change (%, negative = inhibition) at 10uM compared against -50%; not below it gives fulfilled, below it gives not fulfilled.

Below are worked cases with known answers.
| Molecule | Answer label |
| --- | --- |
| CN(C)CCCN1C(=O)CSC1c1ccc([N+](=O)[O-])cc1.Cl (stereo not drawn) | fulfilled |
| COc1ccc(N2C(=O)NC(=O)/C(=C/c3cccc(OC(=O)c4cccs4)c3)C2=O)cc1Cl | fulfilled |
| O=S(=O)(Nc1ccc(-c2nnc(SCc3ccc(Cl)cc3)o2)cc1)c1ccccc1 | fulfilled |
| Cl.O=C1CSC(c2cccc([N+](=O)[O-])c2)N1CCN1CCCCC1 (stereo not drawn) | fulfilled |
| Cc1ccc(S(=O)(=O)N(C)C)cc1NC(=S)N(C)C1CCN(C)CC1 | fulfilled |

Exam item: Is reported hERG current change (%, negative = inhibition) at 10uM greater than or equal to -50% here: CCC1CCCCN1CCNS(=O)(=O)c1ccc2c(c1)CCN2C(C)=O (stereo not drawn)
Marked response: fulfilled

Exam item: Could you tell me if the measured hERG current change (%, negative = inhibition) at 10uM of CCN(CC)CCCN1C(=O)CSC1c1ccc([N+](=O)[O-])cc1.Cl (stereo not drawn) reaches -50% or more?
Marked response: not fulfilled

Exam item: Textbook exercise: given the entry Cl.O=C1CSC(c2ccc([N+](=O)[O-])cc2)N1CCN1CCCCC1 (stereo not drawn) , state whether its hERG current change (%, negative = inhibition) at 10uM is greater than or equal to -50%.
Marked response: not fulfilled

* * *

target: human ether-à-go-go-related gene (hERG) potassium channel (human, UniProt Q12809); assay: primary screen, population patch clamp on CHO cells stably expressing hERG; higher = less effect of the substance;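 note: peak tail current of the secondary pulse compared with the same well before compound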
The whole screen tested about 310,000 compounds, of which about 14,000 (4.5%) showed an effect of 50% or more. Effects have a minus sign here. What follows is part of a selection rich in strong results, with near analogues and random picks from the rest.
Reported property: hERG current change (%, negative = inhibition) at 10uM (%)
Numbers only; they are read as %.

| Compound | Measured |
| --- | --- |
| Cc1ccc(NCc2nnc(SCC(=O)c3ccccc3)n2Cc2ccco2)c(C)c1 | -7.53 |
| COc1cccc(-c2nnc(SCC(=O)OC(C)C)n2Cc2ccco2)c1 | -15.3 |
| Cc1ccc(NCc2nnc(SCc3ccc(C#N)cc3)n2Cc2ccco2)c(C)c1 | -70.8 |
| Cc1cccc(-c2nnc(SCc3nc4ccccc4[nH]3)n2Cc2ccco2)c1 | -48.8 |
| COc1ccc(C(=O)N(C)c2ccccc2C(=O)NCCc2ccccc2)cc1 | -20.2 |

Exam item: Quick one: hERG current change (%, negative = inhibition) at 10uM of COc1ccc(C(=O)CSc2nnc(CNc3ccc(C)cc3C)n2Cc2ccco2)cc1 ?
Marked response: 6.88

Exam item: Find the recorded hERG current change (%, negative = inhibition) at 10uM belonging to COc1cc(C2NC(=O)NC(C)=C2C(=O)OCC2CCCO2)cc(OC)c1OC (stereo not shown) and report it.
Marked response: 18.8

Exam item: Quick one: hERG current change (%, negative = inhibition) at 10uM of Cc1ccc(N=C(NO)c2nonc2N)cc1 ?
Marked response: 10.1

Exam item: # input compound: Cc1ccc(-c2nnc(SCc3ccc(C#N)cc3)n2Cc2ccco2)cc1 ; wanted: its hERG current change (%, negative = inhibition) at 10uM
Marked response: -20.6

Exam item: Give its hERG current change (%, negative = inhibition) at 10uM value. Item: COc1cccc(-c2nnc(SCc3ccc(C#N)cc3)n2Cc2ccco2)c1
Marked response: -70.3

* * *

target: human ether-à-go-go-related gene (hERG) potassium channel (human, UniProt Q12809); assay: primary screen, population patch clamp on CHO cells stably expressing hERG; higher = less effect of the substance;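 note: peak tail current of the secondary pulse compared with the same well before compound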
The whole screen tested about 310,000 compounds, of which about 14,000 (4.5%) showed an effect of 50% or more. The effect is printed as a negative number. The sample holds strong results, similar compounds and a random draw of the others, so the mix is not that of the screen.
As shown below, each of these compounds has a reported hERG current change (%, negative = inhibition) at 10uM value.
Could you give me the number in %? Just the number is fine.

Worked examples follow.
| Smiles structure | Uom | Measured |
| --- | --- | --- |
| O=C(c1ccco1)N1CCN(c2ncnc3c(-c4ccccc4)nsc23)CC1 | % | -14.2 |
| O=C(CN1CCN(Cc2ccccc2)CC1)Nc1nc2ccccc2s1 | % | -68.2 |
| O=C(c1ccco1)N1CCN(c2ncnc3scc(-c4ccccc4)c23)CC1 | % | -64.5 |

Exam item: Which measured hERG current change (%, negative = inhibition) at 10uM value corresponds to O=C(CN1CCNCC1)Nc1ccccc1Cl ?
Marked response: -2.06

Exam item: I am curious: what hERG current change (%, negative = inhibition) at 10uM value has been reported for COc1cc(OC)c2cc[nH]c2c1 ?
Marked response: 27.3

Exam item: # input compound: CC(C)(C)C(=O)N1CCN(c2ncnc3scc(-c4ccccc4)c23)CC1 ; wanted: its hERG current change (%, negative = inhibition) at 10uM
Marked response: -30

Exam item: Recorded hERG current change (%, negative = inhibition) at 10uM of Cc1ccc(S(=O)(=O)Nc2ccc(S(=O)(=O)Nc3cc(C)nc(C)n3)cc2)cc1 , please.
Marked response: 23.3

Exam item: hERG current change (%, negative = inhibition) at 10uM for CCN(CC)S(=O)(=O)c1ccc(C)c(NC(=O)CNCCN(C(C)C)C(C)C)c1.O=C(O)C(=O)O ?
Marked response: -75.5

Exam item: Form field: reported hERG current change (%, negative = inhibition) at 10uM of CC(=O)O[C@@H]1C[C@H]2C(C)(C)C(=O)C=C[C@]2(C)[C@H]2CC[C@@]3(C)[C@H](c4ccoc4)OC(=O)[C@H]4O[C@]43[C@@]21C
Marked response: -43.1

Exam item: Look at this compound and give its reported hERG current change (%, negative = inhibition) at 10uM. CCCN1CCN(CC(=O)Nc2nc3ccccc3s2)CC1
Marked response: -49.9

* * *

This listing pairs compounds with measured hERG current change (%, negative = inhibition) at 10uM.
target: human ether-à-go-go-related gene (hERG) potassium channel (human); assay: primary screen, population patch clamp on CHO cells stably expressing hERG; higher = less effect of the substance;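 note: peak tail current of the secondary pulse compared with the same well before compound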
Hit rate of the full screen: of about 310,000 compounds, about 14,000 (4.5%) showed an effect of 50% or more. Effects have a minus sign here. The list comes from a sample in which strong results are over-represented; it also holds close analogues and randomly drawn compounds.
Output spec: scalar in %, unitless text.

| Compound | Assay target | Measured |
| --- | --- | --- |
| O=C(Nc1ccccc1)c1ccc[n+](Cc2ccc([N+](=O)[O-])cc2)c1.[Br-] | human ether-à-go-go-related gene (hERG) potassium channel (human) | -4.25 |

Exam item: Return reported hERG current change (%, negative = inhibition) at 10uM; argument: CC(C)C(=O)Nc1cccc(NC(=O)c2cccc([N+](=O)[O-])c2)c1
Marked response: -30.9

Exam item: Returns the measured hERG current change (%, negative = inhibition) at 10uM for the input compound. Input: COCCNC(=S)NC1CC2CCC(C1)N2Cc1ccccc1 (centres unmarked)
Marked response: 2.78

Exam item: Which hERG current change (%, negative = inhibition) at 10uM is listed for O=C(C[n+]1cccc(C(=O)Nc2ccccc2)c1)c1ccc([N+](=O)[O-])cc1.[Br-] ?
Marked response: -73.1
